The measured values listed here are drawn from ChEMBL document CHEMBL1961873.

- test-system: Serine/threonine-protein kinase SIK1 (Homo sapiens) (UniProt P57059);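 note: reported as mean inhibition, part of the GSK PKIS screen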
- Sequence (P57059 whole entry): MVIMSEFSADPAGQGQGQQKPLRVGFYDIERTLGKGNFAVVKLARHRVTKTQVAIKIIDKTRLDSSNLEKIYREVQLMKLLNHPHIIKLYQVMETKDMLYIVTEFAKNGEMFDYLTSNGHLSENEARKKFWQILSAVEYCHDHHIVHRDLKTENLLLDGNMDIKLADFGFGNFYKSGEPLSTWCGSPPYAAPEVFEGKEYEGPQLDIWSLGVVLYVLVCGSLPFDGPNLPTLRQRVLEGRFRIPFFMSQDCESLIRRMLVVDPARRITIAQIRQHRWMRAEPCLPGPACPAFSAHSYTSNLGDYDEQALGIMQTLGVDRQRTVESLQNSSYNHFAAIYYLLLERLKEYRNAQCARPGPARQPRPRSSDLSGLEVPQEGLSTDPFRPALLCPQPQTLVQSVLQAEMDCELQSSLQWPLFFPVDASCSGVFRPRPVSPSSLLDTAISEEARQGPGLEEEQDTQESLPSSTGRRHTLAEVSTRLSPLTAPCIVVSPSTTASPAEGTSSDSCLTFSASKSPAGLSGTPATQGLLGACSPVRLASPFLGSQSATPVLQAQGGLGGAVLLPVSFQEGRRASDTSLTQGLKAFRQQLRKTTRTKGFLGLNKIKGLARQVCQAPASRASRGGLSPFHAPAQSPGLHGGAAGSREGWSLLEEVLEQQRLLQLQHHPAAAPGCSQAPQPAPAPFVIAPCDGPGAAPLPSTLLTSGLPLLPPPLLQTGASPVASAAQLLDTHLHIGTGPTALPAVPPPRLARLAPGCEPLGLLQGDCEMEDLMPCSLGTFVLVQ
- experimental-context: at 0.1 µM
Each entry below carries its recorded inhibition.
measured-endpoint: inhibition (%)

>>> numeric_readout("CC(C)COC(=O)c1ccc2c(c1)/C(=C/Nc1ccc(S(N)(=O)=O)cc1)C(=O)N2")
2.01
>>> numeric_readout("Fc1ccc(-c2cc(-c3c[nH]nc3-c3ccccn3)ccn2)cc1")
3.49
>>> numeric_readout("CCOc1ccc2c(-c3ccnc(Nc4cccc(C(F)(F)F)c4)n3)cnn2n1")
2.46
>>> numeric_readout("CNC(=O)c1cc(-c2ccc(F)cc2)cc(-c2ccc(S(=O)(=O)N3CCCC3)cc2)c1N")
6.18
>>> numeric_readout("CCN(CC)S(=O)(=O)c1ccc(OC)c(Nc2ncc(-c3ccccc3)o2)c1")
1.24
>>> numeric_readout("CNC(=O)c1cncc(/C=C/c2ccccc2Cl)c1")
2.02
>>> numeric_readout("CCn1c(-c2nonc2N)nc2cnc(Oc3cccc(NC(=O)c4ccc(N(C)C)cc4)c3)cc21")
1.57
>>> numeric_readout("c1cc(-c2cnn3nc(N4CCOCC4)ccc23)nc(NC2CC2)n1")
7.04
>>> numeric_readout("Fc1ccc(-c2nn3ccccc3c2-c2ccncc2)cc1")
1.08
>>> numeric_readout("COc1ccc(-c2oc3ncnc(N)c3c2-c2ccc(NC(=O)Nc3cc(C(F)(F)F)ccc3F)cc2)cc1")
6.56
>>> numeric_readout("CCNC(=O)O[C@H]1CN[C@H](C#Cc2cc3ncnc(Nc4ccc(OCc5cccc(F)c5)c(Cl)c4)c3s2)C1")
9.17
>>> numeric_readout("CNC(=O)c1cccc(C#Cc2cncnc2Nc2ccc(OCc3cccc(F)c3)c(Cl)c2)c1")
2.11
>>> numeric_readout("Cc1cccc(Nc2ncc(-c3ccccc3)o2)c1")
3.47
>>> numeric_readout("Fc1ccc(-c2nn3ncccc3c2-c2ccnc(Nc3ccc4c(c3)OCCO4)n2)cc1")
10.5
>>> numeric_readout("[O-][S+]1CCN(Cc2ccc(-c3ccc4ncnc(Nc5ccc(OCc6cccc(F)c6)c(Cl)c5)c4c3)o2)CC1")
5.68
>>> numeric_readout("O=C(Nc1n[nH]c2cc(-c3ccc(F)cc3)ccc12)C1CC1")
4.89
>>> numeric_readout("NS(=O)(=O)c1ccc(N/N=C2\\C(=O)Nc3ccc4ncccc4c32)cc1")
2.74
>>> numeric_readout("CCn1c(-c2nonc2N)nc2ccccc21")
7.25
>>> numeric_readout("CCN1CCC(CC(=O)Nc2n[nH]c3nnc(-c4cccc(F)c4F)cc23)CC1")
4.85
>>> numeric_readout("CCn1cc(-c2ccnc3[nH]ccc23)c(-c2cccc(NC(=O)Nc3ccc(OCc4ccccc4)cc3)c2)n1")
1.1
>>> numeric_readout("Nc1nc(-c2ccc(F)cc2)c(-c2ccc3ncccc3n2)s1")
11.6
>>> numeric_readout("c1ccc(COc2ccc(Nc3ncnc4ccc(-c5ccco5)cc34)cc2)cc1")
1.4
>>> numeric_readout("COC(=O)c1sc(-n2cnc3cc(OC)c(OC)cc32)cc1OCc1ccccc1C(F)(F)F")
6.13
>>> numeric_readout("CC(=O)Nc1cccc(C#Cc2cncnc2Nc2ccc(OCc3cccc(F)c3)c(Cl)c2)c1")
4.24
>>> numeric_readout("Nc1ncc(-c2cccc(S(N)(=O)=O)c2)c2scc(-c3ccc(F)c(Cl)c3)c12")
20.4
>>> numeric_readout("CCn1c(-c2nonc2N)nc2c(C#CC(C)(C)O)nc(OC[C@H](N)c3ccccc3)cc21")
3.53
>>> numeric_readout("CCCN(CCS(C)(=O)=O)Cc1ccc(-c2ccc3ncnc(Nc4ccc(OCc5cccc(F)c5)c(Cl)c4)c3c2)o1")
5.69
>>> numeric_readout("CN1CCC(n2cnc(-c3ccc(F)cc3)c2-c2ccnc(N)n2)CC1")
2.58
>>> numeric_readout("COc1cccc(-n2ncc3c(N/N=C/c4ccc(F)cc4)ncnc32)c1")
9.59
>>> numeric_readout("COc1cc2c(cc1Nc1nc(Nc3ccsc3C(N)=O)c3cc[nH]c3n1)N(C(=O)CN(C)C)CCC2(C)C")
2.02
>>> numeric_readout("CN(C)CCOc1ccc(-c2nc(-c3ccncc3)c(-c3ccc4c(c3)CC/C4=N\\O)[nH]2)cc1")
2.53
>>> numeric_readout("O=S(=O)(CCNCc1ccc(-c2ccc3ncnc(Nc4ccc(OCc5cccc(F)c5)c(Cl)c4)c3c2)o1)c1ccccc1")
3.17
>>> numeric_readout("COc1ccc(-c2cc(-c3c[nH]nc3-c3ccccn3)ccn2)cc1")
11.2
>>> numeric_readout("CCCN1CCC(c2ccc(Nc3nc(Nc4cc(F)ccc4C(N)=O)c4cc[nH]c4n3)c(OC)c2)CC1")
10.1
>>> numeric_readout("COc1ccc(CNC(=O)c2ccc(-c3cc(-c4nnc(C)o4)ccc3C)cc2)cc1")
1.54
>>> numeric_readout("Fc1cccc(COc2ccc(Nc3ncnc4sc(-c5ccco5)cc34)cc2Cl)c1")
2.24
>>> numeric_readout("N#Cc1c(NC(=O)CN2CCOCC2)sc2c1CCCC2")
0.17
>>> numeric_readout("COc1cccc(-c2c[nH]c3c(N/N=C/c4ccncc4)ncnc23)c1")
10.7
>>> numeric_readout("CCc1nn2ncccc2c1-c1ccnc(NC2CC2)n1")
0.6
>>> numeric_readout("CS(=O)(=O)CCNCc1ccc(-c2ccc3ncnc(Nc4ccc(OCc5ccccc5)c(C(F)(F)F)c4)c3c2)o1")
4.5
>>> numeric_readout("O=C(O[C@H]1CN[C@H](C#Cc2cc3ncnc(Nc4ccc(Cc5ccccc5)cc4)c3s2)C1)N1CCOCC1")
0.92
>>> numeric_readout("COc1cc2ncn(-c3cc(OCc4ccccc4C(F)(F)F)c(C(=O)N(C)C)s3)c2cc1OC")
2.6
